Values from ChEMBL document CHEMBL1128579

Tested on: L1210
assay_method_text: Inhibitory concentration against L1210 cells on 96 hr incubation.
Assay type: functional, cell-based
condition_parameters: Mus musculus, L1210, 96 h
observation_type: IC50 (µM)

[a] C(CCNCC1CCNCC1)CNCC1CCNCC1
[b] c1cc(CNCCCCNCc2ccncc2)ccn1
Task: Consider entries a and b . Which has the numerically lower IC50? Returns: label corresponding to the selected item.
Output: a
(a: 0.1 µM, b: 80 µM)

----------
Test system: L1210
assay_method_text: Impact on polyamine biosynthetic enzyme, S-adenosyl-L-methionine decarboxylase in L1210 cells treated with the compound for 6 hr.
Format: cell-based
Design: concentration or dose not given beside the values
Each entry below carries its recorded Control.
All answers are understood in %, so give the number only.

- molecule: "c1cc(CCNCCCCNCCc2ccncc2)ccn1"
  Control / %: 100

Task: Find the recorded Control belonging to FC(F)(F)CNCCCNCCCCNCCCNCC(F)(F)F and report it.
Output: 100

Task: Any idea what its Control is? The molecule is C(CCNCC1CCNCC1)CNCC1CCNCC1
Output: 39

Task: Need Control of c1cc(CNCCCCNCc2ccncc2)ccn1 , thanks.
Output: 100

Task: Return reported Control; argument: CCNCCCNCCCCNCCCNCC [BIS(ETHYL)SPERMINE]
Output: 28

----------
assay_method_text: Titrimetrically measured pKa2 value of the compound
Type: physicochemical
condition_parameters: read-out: pKa2
observation_type: pKa

- entry_smiles: "FC(F)(F)CNCCCNCCCCNCCCNCC(F)(F)F"
  measured: 9.41
- entry_smiles: "c1cc(CNCCCCNCc2ccncc2)ccn1"
  measured: 7.64
- entry_smiles: "c1cc(CCNCCCCNCCc2ccncc2)ccn1"
  measured: 8.85
- entry_smiles: "NCCCNCCCCNCCCN"
  measured: 10.1
- entry_smiles: "C(CCNCC1CCNCC1)CNCC1CCNCC1"
  measured: 10.7

----------
assay_method_text: Titrimetrically measured pKa3 value of the compound
Type: physicochemical
condition_parameters: read-out: pKa3
observation_type: pKa

# annotated cases, reported pKa shown
- compound: "c1cc(CNCCCCNCc2ccncc2)ccn1"
  observation_type: "pKa"
  measured: 4.43
- compound: "FC(F)(F)CNCCCNCCCCNCCCNCC(F)(F)F"
  observation_type: "pKa"
  measured: 4.81
- compound: "C(CCNCC1CCNCC1)CNCC1CCNCC1"
  observation_type: "pKa"
  measured: 9.43

[I] c1cc(CCNCCCCNCCc2ccncc2)ccn1
[II] NCCCNCCCCNCCCN [SPERMINE]
Task: Returns: the argument ( I or II ) having the larger pKa. Respond using the label that marks the chosen record.
Output: II
(II: 8.82, I: 5.69)

----------
system_tested: Spermidine/spermine N(1)-acetyltransferase (SAT) (Mus musculus) (UniProt Q6P8J2+P48026)
Sequence (P48026 whole entry, looked up): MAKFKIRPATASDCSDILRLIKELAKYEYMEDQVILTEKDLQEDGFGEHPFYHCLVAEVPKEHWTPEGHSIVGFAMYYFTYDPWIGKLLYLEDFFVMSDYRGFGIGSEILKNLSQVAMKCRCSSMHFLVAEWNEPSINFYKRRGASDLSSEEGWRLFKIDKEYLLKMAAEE
Sequence (Q6P8J2 whole entry, looked up): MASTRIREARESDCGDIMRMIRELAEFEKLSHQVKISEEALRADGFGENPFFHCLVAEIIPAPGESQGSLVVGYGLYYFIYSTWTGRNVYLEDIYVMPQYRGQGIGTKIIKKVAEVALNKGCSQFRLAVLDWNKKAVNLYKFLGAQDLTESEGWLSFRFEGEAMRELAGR
assay_method_text: Impact on polyamine biosynthetic enzyme Spermidine N-acetyl-transferase in L1210 cells treated with the compound for 48 hr.
Format: cell-based
Design: concentration or dose not given beside the values
observation_type: Control (%)

- compound: "c1cc(CNCCCCNCc2ccncc2)ccn1"
  Control / %: 87
- compound: "CCNCCCNCCCCNCCCNCC [BIS(ETHYL)SPERMINE]"
  Control / %: 460
- compound: "C(CCNCC1CCNCC1)CNCC1CCNCC1"
  Control / %: 325

[a] c1cc(CCNCCCCNCCc2ccncc2)ccn1
[b] FC(F)(F)CNCCCNCCCCNCCCNCC(F)(F)F
Task: Rank a against b by their Control values and give the higher one. Could you answer with the label of the item you picked?
Output: a
(a: 140%, b: 97%)
